# PROCEDURE SUMMARY: Antiproliferative activity against human COLO205 cells assessed as cell growth at 10^-7 M after 48 hrs by sulforhodamine B assay
# Format: functional
# TEST CONDITIONS: COLO 205, 48 h, read-out: Activity
METRIC: growth at 0.1 µM (%)
The response must be a number in % with no trailing unit.

GET /value?item= "CNC(=O)c1cc(Oc2ccc3nc(NC(=O)c4cc(C(F)(F)F)cc(C(F)(F)F)c4)sc3c2)ccn1" &field=growth at 0.1 µM returns 91

// sample "CNC(=O)c1cc(Oc2ccc3nc(NC(=O)Nc4ccc(Cl)c(C(F)(F)F)c4)sc3c2)ccn1" , its growth at 0.1 µM was 106

get_value(item= "CNC(=O)c1cc(Oc2ccc3nc(NC(=O)Nc4ccc(Cl)c(Cl)c4)sc3c2)ccn1" , readout=growth at 0.1 µM) returns 105

Just so you know, measured growth at 0.1 µM for "CNC(=O)c1cc(Oc2ccc3nc(NC(=O)Nc4cc(C(F)(F)F)cc(C(F)(F)F)c4)sc3c2)ccn1" came out at 96

---

# PROCEDURE SUMMARY: Antiproliferative activity against human HOP62 cells assessed as growth inhibition after 48 hrs by sulforhodamine B assay
# Format: functional
# TEST CONDITIONS: HOP-62, 48 h
METRIC: LC50 (µM)
A number alone suffices; assume µM.

// field: LC50; key: "CNC(=O)c1cc(Oc2ccc3nc(NC(=O)c4cc(C(F)(F)F)cc(C(F)(F)F)c4)sc3c2)ccn1" ; value = 51.6

Record "CNC(=O)c1cc(Oc2ccc3nc(NC(=O)Nc4ccc(Cl)c(Cl)c4)sc3c2)ccn1" , field LC50: 7.15

The reported value for "CNC(=O)c1cc(Oc2ccc3nc(NC(=O)Nc4cc(C(F)(F)F)cc(C(F)(F)F)c4)sc3c2)ccn1" in terms of LC50 is 6.79

---

# PROCEDURE SUMMARY: Antiproliferative activity against human OVCAR3 cells assessed as growth inhibition after 48 hrs by sulforhodamine B assay
# Assay type: functional
# TEST CONDITIONS: OVCAR-3, 48 h
Please respond with reported GI50 for every item in the list.
Report the figure in nM without appending any unit label.

Lab note: measured GI50 of "CNC(=O)c1cc(Oc2ccc3nc(NC(=O)c4cc(C(F)(F)F)cc(C(F)(F)F)c4)sc3c2)ccn1" was 2320

In plain terms, "CNC(=O)c1cc(Oc2ccc3nc(NC(=O)Nc4ccc(Cl)c(C(F)(F)F)c4)sc3c2)ccn1" has a documented GI50 of 2110

Item: "CNC(=O)c1cc(Oc2ccc(NC(=O)Nc3ccc(Cl)c(C(F)(F)F)c3)cc2)ccn1" | GI50: 3160

The recorded GI50 for entry "CNC(=O)c1cc(Oc2ccc3nc(NC(=O)Nc4ccc(Cl)c(Cl)c4)sc3c2)ccn1" equals 2300

Consider "CNC(=O)c1cc(Oc2ccc3nc(NC(=O)Nc4cc(C(F)(F)F)cc(C(F)(F)F)c4)sc3c2)ccn1" . Its measured GI50 is 1030

---

# Tested on: M14
# PROCEDURE SUMMARY: Antiproliferative activity against human M14 cells assessed as growth inhibition after 48 hrs by sulforhodamine B assay
# Assay type: functional
# TEST CONDITIONS: M14, 48 h
Give measured TGI for each item. Keep answers brief.
# number only, unit µM dropped from output

The compound "CNC(=O)c1cc(Oc2ccc(NC(=O)Nc3ccc(Cl)c(C(F)(F)F)c3)cc2)ccn1" showed TGI equal to 5.01

TGI reading for "CNC(=O)c1cc(Oc2ccc3nc(NC(=O)Nc4ccc(Cl)c(Cl)c4)sc3c2)ccn1" : 4.74

Documented TGI of "CNC(=O)c1cc(Oc2ccc3nc(NC(=O)Nc4cc(C(F)(F)F)cc(C(F)(F)F)c4)sc3c2)ccn1" : 3.22

The reported value for "CNC(=O)c1cc(Oc2ccc3nc(NC(=O)c4cc(C(F)(F)F)cc(C(F)(F)F)c4)sc3c2)ccn1" in terms of TGI is 19.5
